System: Escherichia coli TOP10
PROCEDURE TEXT: shrunken log2 fold change of peptide-encoding DNA abundance (4.5 h post-induction vs induction); higher = less antimicrobial activity (less host growth inhibition)
CONDITION INFO: time post-induction: 4.5 h; library: site-saturation at positions 5, 18, 19, 20
Please provide measured shrunken log2 fold change for the entries that follow.
Keep the answer to the number alone.

Data request: I am curious: what shrunken log2 fold change value has been reported for RRIRPRPPRLPRPRPRPWIWPRP ?
Data returned: -0.186

Data request: I am curious: what shrunken log2 fold change value has been reported for RRIRGRPPRLPRPRPRPPTKPRP ?
Data returned: 0.968

Data request: I am curious: what shrunken log2 fold change value has been reported for RRIRSRPPRLPRPRPRPVEAPRP ?
Data returned: -0.0651

Data request: I am curious: what shrunken log2 fold change value has been reported for RRIRARPPRLPRPRPRPGCYPRP ?
Data returned: -0.00374

Data request: I am curious: what shrunken log2 fold change value has been reported for RRIRIRPPRLPRPRPRPALVPRP ?
Data returned: 0.228

Data request: I am curious: what shrunken log2 fold change value has been reported for RRIRCRPPRLPRPRPRPQFFPRP ?
Data returned: -0.433

Data request: I am curious: what shrunken log2 fold change value has been reported for RRIRDRPPRLPRPRPRPDDRPRP ?
Data returned: 0.108

Data request: I am curious: what shrunken log2 fold change value has been reported for RRIRERPPRLPRPRPRPGFEPRP ?
Data returned: -0.1

====

Please provide measured shrunken log2 fold change for the entries that follow.
Test system: Escherichia coli TOP10;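 note: peptides expressed intracellularly from a pBAD plasmid library in pooled LB shake-flask culture, induced with 0.3% L-arabinose, DNA abundance read by NGS, three biological replicates, DESeq2 with apeglm shrinkage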
PROCEDURE TEXT: shrunken log2 fold change of peptide-encoding DNA abundance (4.5 h post-induction vs induction); higher = less antimicrobial activity (less host growth inhibition)
CONDITION INFO: time post-induction: 4.5 h; library: site-saturation at positions 5, 18, 19, 20
Keep the answer to the number alone.

Data request: I am curious: what shrunken log2 fold change value has been reported for RRIRDRPPRLPRPRPRPNWWPRP ?
Data returned: 0.22

Data request: I am curious: what shrunken log2 fold change value has been reported for RRIRYRPPRLPRPRPRPATWPRP ?
Data returned: -0.154

Data request: I am curious: what shrunken log2 fold change value has been reported for RRIRRRPPRLPRPRPRPFREPRP ?
Data returned: 0.163

Data request: I am curious: what shrunken log2 fold change value has been reported for RRIRDRPPRLPRPRPRPKLGPRP ?
Data returned: -0.000429

Data request: I am curious: what shrunken log2 fold change value has been reported for RRIRVRPPRLPRPRPRPSVTPRP ?
Data returned: -0.222

Data request: I am curious: what shrunken log2 fold change value has been reported for RRIRMRPPRLPRPRPRPMIMPRP ?
Data returned: 0.421

Data request: I am curious: what shrunken log2 fold change value has been reported for RRIRFRPPRLPRPRPRPSERPRP ?
Data returned: -0.0251

Data request: I am curious: what shrunken log2 fold change value has been reported for RRIRPRPPRLPRPRPRPVYWPRP ?
Data returned: -0.139

Data request: I am curious: what shrunken log2 fold change value has been reported for RRIRDRPPRLPRPRPRPNAVPRP ?
Data returned: -0.101

Data request: I am curious: what shrunken log2 fold change value has been reported for RRIRTRPPRLPRPRPRPCCVPRP ?
Data returned: -0.363

Data request: I am curious: what shrunken log2 fold change value has been reported for RRIRNRPPRLPRPRPRPENDPRP ?
Data returned: 0.0164

Data request: I am curious: what shrunken log2 fold change value has been reported for RRIRIRPPRLPRPRPRPSIQPRP ?
Data returned: -0.252

Data request: I am curious: what shrunken log2 fold change value has been reported for RRIRQRPPRLPRPRPRPFRNPRP ?
Data returned: 0.033

Data request: I am curious: what shrunken log2 fold change value has been reported for RRIRYRPPRLPRPRPRPMQNPRP ?
Data returned: -0.488

Data request: I am curious: what shrunken log2 fold change value has been reported for RRIRPRPPRLPRPRPRPSQIPRP ?
Data returned: -0.112

The measurements presented in this section are drawn from the supplement of paper PMC9112550.
